The reported numbers originate from ChEMBL document CHEMBL1149475.

Below, each entry is listed with its recorded half-life.
# Protocol text: Alpha half life in Balb/C mouse at 0.5 mg/kg, iv and 2 mg/kg, ip
# Format: ADME, organism-based
# Condition summary: in vivo
Property: half-life (min)

[
  {
    "Mol smiles": "COc1c(C)c(OC)c2c(c1O)[C@@H]1[C@@H]3Cc4c(OC)c(C)c(OC)c(O)c4[C@H](CNC(=O)c4ccc5ccccc5n4)N3[C@@H](C#N)[C@H](C2)N1C",
    "Property": "half-life",
    "Reported": 3.5
  },
  {
    "Mol smiles": "COc1c(C)c(OC)c2c(c1O)[C@@H]1[C@@H]3Cc4c(OC)c(C)c(OC)c(O)c4[C@H](CNC(=O)c4cc5cc(OC6CCOCC6)ccc5o4)N3[C@@H](C#N)[C@H](C2)N1C",
    "Property": "half-life",
    "Reported": 3
  }
]
